pKi: −log10 of the molar value.
Below: molecules with pKi recorded for Protein kinase C theta type (Homo sapiens, UniProt Q04759) in separate published works.

• Nc1cc(Cl)cc(Nc2ccc(C(F)(F)F)c(-c3n[nH]c4ncccc34)n2)c1 = > 6.30
• CN(C)C(C)(C)COc1ccc(C(F)(F)F)c(-c2n[nH]c3ncccc23)n1 = < 6.15
• CC(C)C[C@H](N)COc1ccc(C(F)(F)F)c(-c2n[nH]c3ncccc23)n1 = > 6.30
• OC1(C2CN(c3ccc(F)c(-c4n[nH]c5ncccc45)n3)CCN2)COC1 (centres unmarked) = > 7.30
• O[C@H](CNc1cccc(-c2n[nH]c3ncccc23)n1)c1ccccc1 = < 6.15
• CC(C)C1OC(=O)N2CCN(c3ccc(C(F)(F)F)c(C(=O)c4cccnc4N)n3)CC12 (centres unmarked) = 5.55 to 6.30

Quick check: pKi on Protein kinase C theta type (Homo sapiens, UniProt Q04759), item c1cc(NCC2CCCNC2)nc(-c2n[nH]c3ncccc23)c1 (centres unmarked) ?
> 6.30

Next: "Fc1ccc(CNc2ncc3nc(-c4c(Cl)cccc4Cl)n(C[C@@H]4CCCNC4)c3n2)cc1F"
> 7.00

---

Below: molecules with pKi recorded for Protein kinase C theta type (Homo sapiens) in separate published works.
pKi: −log10 of the molar value.

Guide cases for pKi, answers given:
* NC(=O)C1(N)CCN(c2ccc(C(F)(F)F)c(-c3n[nH]c4ncccc34)n2)CC1 | < 6.15
* Clc1cnc2[nH]nc(-c3cccc(N4CCNCC4)n3)c2c1 | > 6.30
* O=c1[nH]c2cnc(NCCCn3ccnc3)nc2n1Cc1c(Cl)cccc1C(F)(F)F | > 6.00
* Fc1cccc(CNc2ncc3nc(-c4ccccc4Cl)n(C[C@@H]4CCCNC4)c3n2)c1 | > 6.00
* NCCCNc1ncc2[nH]c(=O)n(Cc3cc(F)ccc3C(F)(F)F)c2n1 | > 7.00
* CCC(C)(CN)c1ccsc1-c1ccnc2[nH]ncc12 (centres unmarked) | > 6.30
* CCc1n[nH]c2ncnc(-c3cccc(C4(C#N)CC4)c3)c12 | > 7.30
* N#CCc1csc(-c2ccnc3[nH]ncc23)n1 | > 6.30
* CC(C)C[C@@H]1C[C@@H](N)CN(c2ccc(C(F)(F)F)c(-c3n[nH]c4ncccc34)n2)C1 | > 6.30
* CC(C)(O)[C@@H]1CN(c2nc(-c3n[nH]c4ncccc34)c(F)cc2F)CCN1 | > 7.30

Look up pKi for this molecule: CCCC1(CN)CN(c2ccc(C(F)(F)F)c(-c3n[nH]c4ncccc34)n2)CCO1 (centres unmarked)
> 6.30

Next: "CC(C)[C@H]1CN(c2ccc(C(F)(F)F)c(C(=O)c3cccnc3N)n2)C[C@@H](c2ccccc2)N1"
5.55 to 6.30

---

Below: molecules with Ki recorded for UniProt:Q04759 in separate published works.

Guide cases for Ki, answers given:
- Fc1ccc(N2CCN3CCCC3C2)nc1-c1n[nH]c2ncccc12 (stereo not shown): < 500 nM
- Cc1ccc(C2CN(c3ccc(C(F)(F)F)c(-c4n[nH]c5ncccc45)n3)CCN2)cc1 (stereo not shown): < 500 nM
- CNC1CCN(c2cccc(-c3n[nH]c4ncccc34)n2)C1 (stereo not shown): < 2800 nM
- CC(C)C[C@]1(O)CN(c2ccc(C(F)(F)F)c(-c3n[nH]c4ncccc34)n2)CC[C@@H]1N: < 500 nM

Look up Ki for this molecule: FC(F)(F)CC1CN(c2cccc(-c3n[nH]c4ncccc34)n2)CCN1 (stereo not shown)
< 50 nM

Next: "CC(C)C[C@H]1CN(c2ccc(C(F)(F)F)c(-c3n[nH]c4ncccc34)n2)CCCN1"
< 500 nM

Next: "O=c1[nH]c2cnc(NC[C@H]3CCCNC3)nc2n1Cc1ccccc1C(F)(F)F"
< 1000 nM

Next: CC(O)CNc1ccc(C(F)(F)F)c(-c2n[nH]c3ncccc23)n1 (stereo not shown)
> 700 nM

Next: "CC(C)C[C@@H]1CN(c2ccc(C(F)(F)F)c(-c3n[nH]c4ncccc34)n2)CC[C@@H]1N"
< 50 nM

Next: "NCCCNc1cccc(-c2n[nH]c3ncccc23)n1"
< 500 nM
